From: a melting point compilation (Tetko et al.; mined from patent text by program, amines drawn as free bases though some values may be those of a salt)

# melting point per record follows

Query: Tell us which melting point value is on record for Cc1noc(NS(=O)(=O)c2ccccc2F)c1Br
Response: 87 to 89 °C

Query: Tell us which melting point value is on record for CN1CCC(=C2c3ccccc3C3=C(c4ccccc42)C2(C)C=CC3O2)CC1 (stereo unspecified)
Response: 175 to 177 °C

Query: Tell us which melting point value is on record for COC(=O)c1cccc(S(N)(=O)=O)c1I
Response: 155 to 157 °C

Query: Tell us which melting point value is on record for Fc1ccccc1-c1ccnc2ncnn12
Response: 168 to 172 °C

Query: Tell us which melting point value is on record for COC(=O)c1cc(C(=O)O)cc(-c2cc(Cl)ccc2Cl)c1
Response: 222 to 224 °C

Query: Tell us which melting point value is on record for COc1ccc(-c2cc(C(N)=O)c(=O)n(CC3CCCC3)n2)cc1
Response: 182 to 183 °C

Query: Tell us which melting point value is on record for COC(=O)CC(O)/C=C/c1c(-c2ccc(F)cc2)n(C(C)C)c(=O)c2ccccc12 (stereo unspecified)
Response: 167 to 168 °C

Query: Tell us which melting point value is on record for CCc1cc(O)cc(C)c1N
Response: 167 to 170 °C

Query: Tell us which melting point value is on record for Nc1cnc(Br)c(N)n1
Response: 176 to 178 °C

Query: Tell us which melting point value is on record for CC(C)(C)c1ccn(-c2ccc(C(=O)c3cccc4c3Nc3ncccc3CN4)c(C(F)(F)F)c2)n1
Response: 136 to 140 °C

Query: Tell us which melting point value is on record for CN(CCC(Oc1ccc(C(=O)c2cc3ccccc3s2)cc1)c1ccc(Cl)cc1)CC(=O)O (stereo unspecified)
Response: 101 to 112 °C

====

endpoint: melting point

Known results for compounds:
Query: Tell us which melting point value is on record for CC1(C)Nc2ncc(I)cc2NC1=O
Response: > 300 °C

Query: Tell us which melting point value is on record for CNC(=O)Nc1sc2nc(C)ccc2c1C(=O)N1CCC(N2CCCC3(CCN(C(C)C)C3=O)C2)CC1 (stereo unspecified)
Response: 195 to 198 °C

Query: Tell us which melting point value is on record for CCOc1nc(N)nc(-c2ccccc2)c1-c1ccc(=O)n(C(C)C)n1
Response: 188 °C

Query: Tell us which melting point value is on record for CC(=O)NCC1CN(c2ccc(N3CCN(C4N=NC(=O)S4)CC3)c(F)c2)C(=O)O1 (stereo unspecified)
Response: 173 to 175 °C

Now consider the entry below.
Query: Tell us which melting point value is on record for COc1ccc(S(=O)(=O)n2ccc3ccnc(-c4cccs4)c32)cc1
Response: 112 to 114 °C

====

endpoint: melting point (°C)
Numbers only here, please. The scale is °C.

Query: Tell us which melting point value is on record for CCOC(=O)C(C(C)=O)C(CC(=O)c1ccccc1)c1ccc(OC)c(OC)c1 (stereo not given)
Response: 135

Now consider the entry below.
Query: Tell us which melting point value is on record for O=C(Nc1cc2cn[nH]c2cc1Cl)c1ccccc1NCc1ccncc1
Response: 223

====

# melting point per record follows

Query: Tell us which melting point value is on record for Clc1nc2ccccc2c2c(CCN3CCN(Cc4ccccc4)CC3)n(-c3ccccc3)nc12
Response: 75 to 77 °C

Next:
Query: Tell us which melting point value is on record for COc1ccc(C2(C#Cc3cccc(-c4nnc(C)o4)c3)CCC(=O)CC2)cc1OC1CCCC1
Response: 139 to 141 °C

Query: Tell us which melting point value is on record for O=C(O)COc1cc2c(-c3ccc(Cl)cc3)csc2c(Cl)c1Cl
Response: 206 to 208 °C

Query: Tell us which melting point value is on record for CCC(=O)c1ccc(-c2ccc(Cl)cc2)o1
Response: 66 to 68 °C

Query: Tell us which melting point value is on record for Cc1c(SCCCSc2nnnn2CC(=O)O)ccnc1CSc1ccncc1
Response: 185 to 187 °C

====

endpoint: melting point

Known results for compounds:
Query: Tell us which melting point value is on record for COC1(c2ccc(C)cc2)CCC(=O)CC1
Response: 76 to 76.5 °C

Query: Tell us which melting point value is on record for CCOC(=O)c1nc2c(=O)[nH]c3cc(C(F)(F)F)ccc3n2c1Cn1cnc(Cl)c1Cl
Response: 240 °C

Query: Tell us which melting point value is on record for CC(C)(/C=C\Cl)C(=O)Nc1ccc(Cl)cc1
Response: 127 to 128 °C

Query: Tell us which melting point value is on record for CC(C)(C)OC(=O)N(C(=O)OC(C)(C)C)c1cc(-c2ccc(N)cc2)n(C(=O)OC(C)(C)C)n1
Response: 84 to 85 °C

Query: Tell us which melting point value is on record for COc1ccc(OC)c(S(=O)(=O)c2ccc(Cl)cc2NC(=O)N[C@@H](Cc2ccc(NC(=O)c3c(Cl)cncc3Cl)cc2)C(=O)O)c1
Response: 168 °C

Next:
Query: Tell us which melting point value is on record for O=C(Nc1cccnc1)NC(NC(=O)c1ccccc1)C(Cl)(Cl)Cl (centres undefined)
Response: 214 to 215 °C

Query: Tell us which melting point value is on record for CC(=N)NC/C(F)=C\CC[C@H](N)C(=O)O
Response: 51.5 to 56.3 °C

Query: Tell us which melting point value is on record for CCOC(=O)C(C)=C(CC)NC(=O)Nc1cc(C(=O)OC(C)C)c(Cl)cc1F
Response: 132 to 133 °C

Query: Tell us which melting point value is on record for COC(=O)c1ccc(-c2ccc(-c3ccccc3)c(OS(=O)(=O)C(F)(F)F)c2)cc1
Response: 95 °C

====

# melting point per record follows

Query: Tell us which melting point value is on record for Cn1cc(C2=C(c3c4n(c5ccccc35)CCC4)C(=O)OC2=O)c2ccccc21
Response: 125 to 130 °C

Query: Tell us which melting point value is on record for NCc1c(Cc2ccccc2)nc2ccc(OCC(N)=O)cc2c1-c1ccccc1
Response: 180 to 182 °C

Query: Tell us which melting point value is on record for COCc1cc(NC(=O)OC)no1
Response: 90 to 91 °C

Next:
Query: Tell us which melting point value is on record for CN1CCC(c2c[nH]c3ccc(NC(=O)c4ccc(F)cc4Cl)cc23)CC1
Response: 159 to 162 °C

Query: Tell us which melting point value is on record for O=C(c1c[nH]c(=O)[nH]1)c1cccs1
Response: 339 to 342 °C

Query: Tell us which melting point value is on record for C=C(c1ccccc1N1CCCCC1)C(C(N)=O)c1ccc(C(=O)O)cc1 (stereo not given)
Response: 158 to 160 °C

Query: Tell us which melting point value is on record for CN1CCN(c2ccc(/C=C/C(=O)CC(=O)/C=C/c3ccc4cc[nH]c4c3)cc2)CC1
Response: 65 to 77 °C

Query: Tell us which melting point value is on record for Cc1ccc(-c2nnc(Cl)nc2-c2ccc(C)cc2)cc1
Response: 126 to 130 °C

Query: Tell us which melting point value is on record for CN1C(=O)C(C(=O)Nc2nccs2)Sc2ccccc21 (stereo not given)
Response: 234 to 235 °C

Query: Tell us which melting point value is on record for CC(C)(C)Nc1c(NCc2cc3cc(C#N)ccc3o2)c(=O)c1=O
Response: 299 to 300 °C

====

# melting point per record follows

Query: Tell us which melting point value is on record for CC(C)(CCCCCCC(=O)CCCCCCC(C)(C)C(=O)O)C(=O)O
Response: 74.5 to 76 °C

Query: Tell us which melting point value is on record for CCCCN(C)C(=O)CS(=O)CCCCCOc1ccc(C2=C(c3ccccc3)CCCc3cc(O)ccc32)cc1 (stereo not given)
Response: 87 to 89 °C

Query: Tell us which melting point value is on record for O=C1NC(=O)C2(CC(O)c3ccc(F)cc32)N1 (stereo not given)
Response: 209 to 211 °C

Query: Tell us which melting point value is on record for CS(=O)(=O)Nc1ccc(C(=O)NC(=O)N2CCC(Cc3ccc(F)cc3)CC2)cc1
Response: 221 to 222 °C

Query: Tell us which melting point value is on record for Cc1cc(S(=O)(=O)c2ccc(O)cc2)ccc1C1CCN(C)C1 (stereo not given)
Response: 186 to 188 °C

Query: Tell us which melting point value is on record for CC(=O)N1CCC(CCC(=O)c2ccc3c(c2)CCN3C(C)=O)CC1
Response: 148 to 149 °C

Query: Tell us which melting point value is on record for Cc1c(SCCCN2CCOCC2)ccnc1CSc1nc2ccccc2[nH]1
Response: 149 to 150 °C

Query: Tell us which melting point value is on record for Cc1cc(Oc2ccc(Cl)c(C(F)(F)F)c2)ncc1[N+](=O)[O-]
Response: 75 to 80 °C

Query: Tell us which melting point value is on record for CC(=O)Nc1ccc(-c2c[nH]c(=O)c(C)n2)cc1
Response: > 300 °C

Now consider the entry below.
Query: Tell us which melting point value is on record for O=C1c2cc(F)ccc2CCC1CN1CCC2(CC1)C(=O)NCN2c1ccccc1 (stereo not given)
Response: 162 to 165 °C
